- targetEntity: hENPP2 (Homo sapiens)

| compound | IC50 |
| --- | --- |
| Cc1cc(C)cc(Nc2ncc3c(n2)CN(C2CN(C(=O)c4cc[nH]c(=O)c4)C2)C3)c1 | > 1000 nM |
| Cc1cc(C)cc(Nc2ncc3c(n2)CCN(C2CCN(C(=O)c4ccc5[nH]nnc5c4)[C@@H](C)C2)C3)c1 (stereo partly shown) | 0.01 to 100 nM |
| Cc1cc(C)cc(Nc2ncc3c(n2)CN(C2CCN(C(=O)c4ccc5[nH]nnc5c4)C(C)C2)C3)c1 (racemic) | 0.01 to 100 nM |
| Cc1cc(C)cc(Nc2ncc3c(n2)CN([C@@H]2CCN(C(=O)c4cncc(NS(C)(=O)=O)c4)[C@H](C)C2)C3)c1 | > 1000 nM |
| COc1cc2[nH]nnc2cc1C(=O)N1CC(N2Cc3cnc(Nc4cc(C)cc(C)c4)nc3C2)C1 | 0.01 to 100 nM |
| Cc1cc(C)cc(Nc2ncc3c(n2)CN([C@@H]2CCN(C(=O)c4ccc5[nH]nnc5c4)[C@H](C)C2)C3)c1 | 0.01 to 100 nM |
| Cc1cc(C)cc(Nc2ncc3c(n2)CN(C2CC(C)N(C(=O)c4ccc5[nH]nnc5c4)C(C)C2)C3)c1 (stereo not shown) | > 1000 nM |

====

- targetEntity: UniProt:Q13822
Here the recorded IC50 is given for each entry.
property: IC50

| molecule | valueObserved |
| --- | --- |
| O=C(c1ccc2[nH]nnc2c1)N1CC(N2Cc3cnc(Nc4cc(Cl)cc(C(F)(F)F)c4)nc3C2)C1 [compound 22] | 0.01 to 100 nM |
| COc1cc2[nH]nnc2cc1C(=O)N1CCC(N2Cc3cnc(Nc4cc(C)cc(C)c4)nc3C2)CC1 [compound 106] | 0.01 to 100 nM |
| Cc1cc(C)cc(Nc2ncc3c(n2)CN(C2=C(C#N)CN(C(=O)c4ccc5nn[nH]c5c4)C2)C3)c1 [compound 85] | 100 to 500 nM |
| Cc1cccc(Nc2ncc3c(n2)CN([C@@H]2CCN(C(=O)c4ccnc(NS(C)(=O)=O)c4)[C@H](C)C2)C3)c1 [compound 203] | 0.01 to 100 nM |
| Cc1cc(C)cc(Nc2ncc3c(n2)CN([C@@H]2CCN(C(=O)c4ccc5[nH]nnc5c4)[C@@H](C)C2)C3)c1 [compound 93] | 0.01 to 100 nM |
| Cc1cc(C)cc(Nc2ncc3c(n2)CN(C2CC4CC2CN4C(=O)c2ccc4[nH]c(=O)oc4c2)C3)c1 (stereo not shown) [compound 64] | > 1000 nM |
| Cc1cc(C)cc(Nc2ncc3c(n2)CN(C2CCN(C(=O)c4ccc5[nH]nnc5c4)CC2F)C3)c1 (stereo not shown) [compound 40] | 0.01 to 100 nM |

====

- targetEntity: hENPP2 (Homo sapiens, UniProt Q13822)

| structureString | IC50 |
| --- | --- |
| Cc1cc(C)cc(Nc2ncc3c(n2)CN([C@H]2CCN(C(=O)c4ccc(S(N)(=O)=O)cc4)[C@@H](C)C2)C3)c1 | > 1000 nM |
| O=C(c1ccc2[nH]nnc2c1)N1CC(N2Cc3cnc(Nc4cc(C(F)(F)F)cc(C(F)(F)F)c4)nc3C2)C1 | 0.01 to 100 nM |
| Cc1ccc(Nc2ncc3c(n2)CN([C@@H]2CCN(C(=O)c4ccnc(NS(C)(=O)=O)c4)[C@H](C)C2)C3)cc1 | 0.01 to 100 nM |
| Cc1cc(C)cc(Nc2ncc3c(n2)CN([C@@H]2CCN(C(=O)c4ccc5[nH]nnc5c4C)[C@H](C)C2)C3)c1 | 0.01 to 100 nM |
| COc1cccc(Nc2ncc3c(n2)CN([C@@H]2CCN(C(=O)c4ccc5[nH]nnc5c4)[C@H](C)C2)C3)c1 | 0.01 to 100 nM |
| Cc1cc(C)cc(Nc2ncc3c(n2)CN(C2CN(C(=O)c4cnc5nn[nH]c5c4)C2)C3)c1 | > 1000 nM |
| Cc1cc(C)cc(Nc2ncc3c(n2)CN([C@@H]2CCN(C(=O)c4ccc(-c5nnn[nH]5)cc4)[C@H](C)C2)C3)c1 | > 1000 nM |
